# System: tadpole
# Assay info: Anesthetic potency obtained by use of a tadpole
# Assay type: in vivo
# Measurement conditions: Table 6; potency converted to gaseous system; partial pressure ratio, methanol as 1.00
Some molecules, each annotated with its measured Potency atm.
Observed property: Potency atm

- Entry smiles: "CCOCC"
  Result: 6.43
- Entry smiles: "CC(C)=O"
  Result: 1.76
- Entry smiles: "CCO"
  Result: 5.19

###

# Test system: tadpole
# Assay info: Anesthetic potency obtained by use of a tadpole
# Measurement conditions: in vivo
Consider the following compounds and their measured Potency atm readings.

- Compound: "COC(F)(F)C(Cl)Cl"
  Potency atm: "1.82 × 10^4"
- Compound: "FC(F)(F)C(Cl)Br (stereo not shown)"
  Potency atm: "1.72 × 10^3"
- Compound: "CCCCCCCCCO"
  Potency atm: "2.51 × 10^8"
- Compound: "CC1OC(C)OC(C)O1 (stereo not shown)"
  Potency atm: "8.20 × 10^2"
- Compound: "OCc1ccccc1"
  Potency atm: "6.25 × 10^5"
- Compound: "CCCCCCCCO"
  Potency atm: "1.21 × 10^7"
- Compound: "CCCCC"
  Potency atm: "3.34 × 10^3"

###

# Test system: tadpole
# Assay info: Anesthetic potency obtained by use of a tadpole
# Format: in vivo
# Measurement conditions: Table 6; potency converted to gaseous system; partial pressure ratio, methanol as 1.00
Measured Potency atm values are reported for all entries that follow.

- Compound: "CCCCO [1-butanol]"
  Experimental system: "tadpole"
  Potency atm: "9.41 × 10^2"
- Compound: "CCCCCCCCCCO [1-decanol]"
  Experimental system: "tadpole"
  Potency atm: "1.11 × 10^9"
- Compound: "ClC(Cl)Cl [chloroform]"
  Experimental system: "tadpole"
  Potency atm: "4.62 × 10^2"
- Compound: "CCCCCC [hexane]"
  Experimental system: "tadpole"
  Potency atm: "5.21 × 10^4"
